system_tested: T1, MhAgo_DM (Marinitoga hydrogenitolerans, UniProt A0A1M5A5Z8 1-640, D445A;D515A)
T1 sequence: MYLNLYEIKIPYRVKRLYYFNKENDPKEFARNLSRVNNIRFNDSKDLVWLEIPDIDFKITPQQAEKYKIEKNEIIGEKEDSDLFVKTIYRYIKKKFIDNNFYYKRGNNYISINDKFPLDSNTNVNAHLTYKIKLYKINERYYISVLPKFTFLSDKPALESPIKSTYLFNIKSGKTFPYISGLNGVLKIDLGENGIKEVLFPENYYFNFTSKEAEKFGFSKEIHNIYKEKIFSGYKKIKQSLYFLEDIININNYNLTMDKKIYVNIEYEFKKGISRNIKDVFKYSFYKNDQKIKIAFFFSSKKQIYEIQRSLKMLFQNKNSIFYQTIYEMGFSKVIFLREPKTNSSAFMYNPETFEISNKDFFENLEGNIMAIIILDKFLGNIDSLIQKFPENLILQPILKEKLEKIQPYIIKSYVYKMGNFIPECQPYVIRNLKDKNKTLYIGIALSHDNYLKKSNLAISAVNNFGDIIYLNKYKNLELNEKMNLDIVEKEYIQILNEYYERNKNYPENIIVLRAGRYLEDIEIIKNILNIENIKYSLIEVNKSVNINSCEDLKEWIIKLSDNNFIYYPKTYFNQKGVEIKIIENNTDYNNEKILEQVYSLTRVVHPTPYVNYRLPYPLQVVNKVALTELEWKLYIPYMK
method_summary: EMSA
pKd: −log10 of the molar value.
Listed binders paired with reported pKd

binder	pKd
5'P-gDNA:tDNA duplex (dsDNA, guide 5' phosphate) DNA 1: CGAGGTAGTAGGTTGTAT DNA 2: AAACGACGGCCAGTGCCAAGCTTACTATACAACCTACTACCTCGT	6.84
5'OH-gDNA:tRNA duplex (DNA:RNA, guide 5'OH) DNA: CGAGGTAGTAGGTTGTAT RNA: AAACGACGGCCAGUGCCAAGCUUACUAUACAACCUACUACCUCGU	6.99
5'OH-gRNA:tDNA duplex (DNA:RNA, guide 5'OH) RNA: CGAGGUAGUAGGUUGUAU DNA: AAACGACGGCCAGTGCCAAGCTTACTATACAACCTACTACCTCGT	6.92
5'OH-gRNA:tRNA duplex (dsRNA, guide 5'OH) RNA 1: CGAGGUAGUAGGUUGUAU RNA 2: AAACGACGGCCAGUGCCAAGCUUACUAUACAACCUACUACCUCGU	6.90
5'P-gRNA:tDNA duplex (DNA:RNA, guide 5' phosphate) RNA: CGAGGUAGUAGGUUGUAU DNA: AAACGACGGCCAGTGCCAAGCTTACTATACAACCTACTACCTCGT	6.83
5'P-gRNA:tRNA duplex (dsRNA, guide 5' phosphate) RNA 1: CGAGGUAGUAGGUUGUAU RNA 2: AAACGACGGCCAGUGCCAAGCUUACUAUACAACCUACUACCUCGU	6.63
5'P-gDNA:tRNA duplex (DNA:RNA, guide 5' phosphate) DNA: CGAGGTAGTAGGTTGTAT RNA: AAACGACGGCCAGUGCCAAGCUUACUAUACAACCUACUACCUCGU	6.85
5'OH-gDNA:tDNA duplex (dsDNA, guide 5'OH) DNA 1: CGAGGTAGTAGGTTGTAT DNA 2: AAACGACGGCCAGTGCCAAGCTTACTATACAACCTACTACCTCGT	6.92
